Tested on: OCI-AML2;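 also: after 48 h exposure read by CellTiter-Glo luminescence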
protocol description: cell viability relative to vehicle control; higher = less cytotoxic
test parameters: 10 µM; SRSF2 genotype: P95H/wt
Structures can show the parent of a compound that is named as a salt.
cell viability by entry:
Number only, in %; omit the unit.

{"compound": "CC(C)=CCC[C@](C)(O[C@@H]1O[C@H](CO)[C@@H](O)[C@H](O)[C@H]1O)[C@H]1CC[C@]2(C)[C@@H]1[C@H](O)C[C@@H]1[C@@]3(C)CC[C@H](O[C@@H]4O[C@H](CO)[C@@H](O)[C@H](O)[C@H]4O[C@@H]4O[C@H](CO)[C@@H](O)[C@H](O)[C@H]4O)C(C)(C)[C@@H]3CC[C@]12C [Ginsenoside Rd]", "units": "%", "cell viability": 88}
{"compound": "CC(=O)OCC1=C[C@@H]2OC(=O)C3=CO[C@@H](O[C@@H]4O[C@H](CO)[C@@H](O)[C@H](O)[C@H]4O)[C@H]1[C@@H]32 [Asperulosid]", "units": "%", "cell viability": 88.5}
{"compound": "COc1cccc(-n2c(=O)[nH]c3cc(Cl)n(-c4ccc(-c5cccc(OC)c5O)cc4)c3c2=O)c1", "units": "%", "cell viability": 95.8}

// returns reported cell viability for input C#CCC(Cc1cnc2nc(N)nc(N)c2n1)c1ccc(C(=O)N[C@@H](CCC(=O)O)C(=O)O)cc1 (some centres undefined) [Pralatrexate(Folotyn)]
98.6

Give its cell viability value. Item: COC(=O)C1=C(C)NC(C)=C(C(=O)OC2CCCN(Cc3ccccc3)C2)C1c1cccc([N+](=O)[O-])c1 (centres undefined) [Benidipine hydrochloride]
81.5

Need cell viability of C=C(Cc1ccccc1Cl)C(=O)OCC , thanks.
106

Need cell viability of CCOC(=O)/C=C/c1ccc(O)c(O)c1 [Ethyl caffeate] , thanks.
76.8

I would be grateful if you could share the reported cell viability for COc1cc(N2CCN(C)CC2)ccc1Nc1ncc2c(n1)N(C)c1ccccc1C(=O)N2 .
83.3

Item under review: CCOc1ccc(Cc2cc([C@@H]3O[C@H](SC)[C@@H](O)[C@H](O)[C@H]3O)ccc2Cl)cc1 [Sotagliflozin (LX4211)] . Reported cell viability?
88.6

Entry under review: CN1CCN2c3ncccc3Cc3ccccc3C2C1 (centres undefined) [Mirtazapine (Remeron, Avanza)] . Reported cell viability?
95.9

Value lookup for cell viability; key = CCCCCCOc1cc(C)c(O)c(C)c1C [HTHQ(1-O-Hexyl-2,3,5-trimethylhydroquinone)]
98.7

Would you mind telling me what cell viability value was observed for CC(=O)Oc1cc(C(F)(F)F)ccc1C(=O)O [Triflusal] ?
92.2

cell viability lookup needed for C=CC(C)(O)CCC=C(C)C (centres undefined) [Linalool] , thanks.
109

Dear colleague, I am looking for the recorded cell viability of the following compound: CN1CCC(=C2c3ccccc3CCn3c(C=O)cnc32)CC1 [Alcaftadine]
109
